Target: UniProtKB O75469
Sequence (O75469 whole entry): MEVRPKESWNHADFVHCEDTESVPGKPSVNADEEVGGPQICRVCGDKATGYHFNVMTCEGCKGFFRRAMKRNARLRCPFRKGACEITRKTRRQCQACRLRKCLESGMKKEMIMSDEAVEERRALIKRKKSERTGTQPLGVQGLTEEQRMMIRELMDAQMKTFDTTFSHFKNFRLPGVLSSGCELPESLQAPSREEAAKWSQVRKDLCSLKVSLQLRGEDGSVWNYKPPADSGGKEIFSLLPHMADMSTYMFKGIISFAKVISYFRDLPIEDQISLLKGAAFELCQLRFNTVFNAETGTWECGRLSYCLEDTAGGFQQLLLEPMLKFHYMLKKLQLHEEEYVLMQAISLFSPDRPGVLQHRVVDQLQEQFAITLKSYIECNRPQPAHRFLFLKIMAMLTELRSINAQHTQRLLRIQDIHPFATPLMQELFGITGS
Experiment: Transactivation of PXR in human HepG2 cells assessed as induction of luciferase activity at 50 uM by luciferase reporter gene assay relative to control
Details: read-out: FC
Exercise: state measured fold induction at 50 µM for each of the molecules provided.
Lab note: jot down the number only; don't add units.

I'd like to know its fold induction at 50 µM. The molecule in question is C[C@H](CCCOS(=O)(=O)[O-])[C@H]1CC[C@H]2[C@@H]3CC[C@H]4C[C@H](OS(=O)(=O)[O-])[C@@H](OS(=O)(=O)[O-])C[C@]4(C)[C@H]3CC[C@]12C.[Na+].[Na+].[Na+] [SOLOMONSTEROL A] 4

I'd like to know its fold induction at 50 µM. The molecule in question is C[C@H](CCOS(=O)(=O)[O-])[C@H]1CC[C@H]2[C@@H]3CC[C@H]4C[C@H](OS(=O)(=O)[O-])[C@@H](OS(=O)(=O)[O-])C[C@]4(C)[C@H]3CC[C@]12C.[Na+].[Na+].[Na+] [SOLOMONSTEROL B] 4
